- testedTarget: UniProt:O35433
- Sequence (O35433 whole entry): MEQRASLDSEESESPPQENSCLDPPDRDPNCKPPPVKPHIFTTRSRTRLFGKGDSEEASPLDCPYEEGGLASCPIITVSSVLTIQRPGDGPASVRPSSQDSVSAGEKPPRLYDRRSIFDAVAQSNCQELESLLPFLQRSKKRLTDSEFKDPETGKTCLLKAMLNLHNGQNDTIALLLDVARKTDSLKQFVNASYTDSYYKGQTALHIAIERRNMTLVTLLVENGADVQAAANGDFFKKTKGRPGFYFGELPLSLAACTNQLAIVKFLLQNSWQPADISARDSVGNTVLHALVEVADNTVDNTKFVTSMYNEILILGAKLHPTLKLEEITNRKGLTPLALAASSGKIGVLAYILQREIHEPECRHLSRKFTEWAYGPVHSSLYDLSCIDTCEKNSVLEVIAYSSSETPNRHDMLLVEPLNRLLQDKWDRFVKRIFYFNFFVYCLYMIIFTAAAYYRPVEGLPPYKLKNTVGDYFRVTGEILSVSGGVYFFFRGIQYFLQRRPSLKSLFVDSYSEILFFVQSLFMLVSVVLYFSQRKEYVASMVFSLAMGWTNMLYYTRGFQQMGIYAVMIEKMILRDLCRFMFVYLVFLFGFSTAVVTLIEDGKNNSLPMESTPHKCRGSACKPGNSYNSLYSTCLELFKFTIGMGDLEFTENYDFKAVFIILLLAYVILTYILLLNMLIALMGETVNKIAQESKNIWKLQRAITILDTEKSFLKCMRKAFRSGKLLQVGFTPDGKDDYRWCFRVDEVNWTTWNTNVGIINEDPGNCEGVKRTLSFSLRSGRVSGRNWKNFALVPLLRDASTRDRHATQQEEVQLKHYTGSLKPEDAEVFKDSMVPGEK
- experimentalContext: read-out: Rat IC50
Where a name gives a salt, the structure may show the parent alone.
Measured pIC50 accompanies every entry in the list below.
In simple prose, pIC50 is minus the logarithm base ten of a concentration in moles per litre.

Some molecules with recorded pIC50:
molecule=CC(C)(C)c1ccc(Nc2nc(N3CCCCC3)nc3c2CCN(c2ncccc2C(F)(F)F)CC3)cc1N testedtarget=UniProt:O35433 recordednumber=6.96
molecule=FC(F)(F)c1ccc(Nc2nc(-c3ccccc3)nc3c2CCN(c2ncccc2C(F)(F)F)CC3)nc1 testedtarget=UniProt:O35433 recordednumber=6.89
molecule="COCCNc1nc2c(c(Nc3ccc(C(F)(F)F)cc3)n1)CCN(c1ncccc1C(F)(F)F)CC2 [Example 213, trifluoroacetic acid salt]" testedtarget=UniProt:O35433 recordednumber=6.96

Q: Respond only with pIC50 recorded for FC(F)(F)c1ccc(Nc2nc(N3CCCCCC3)nc3c2CCN(c2ncccc2C(F)(F)F)CC3)nc1
Result: 7.15

Q: Respond only with pIC50 recorded for FC1(F)CN(c2nc3c(c(Nc4ccc(C(F)(F)F)cc4)n2)CCN(c2ncccc2C(F)(F)F)CC3)C1
Result: 6.77

Q: Respond only with pIC50 recorded for CC(C)c1nc2c(c(Nc3ccc(C(F)(F)F)c(F)c3)n1)CCN(c1ncccc1C(F)(F)F)CC2
Result: 6.72

Q: Respond only with pIC50 recorded for CC(C)c1nc2c(c(Nc3ccc(C(F)(F)F)cc3)n1)CCN(c1ncc([N+](=O)[O-])cc1C(F)(F)F)CC2
Result: 6.77
